Target: Proteasome caspase-like activity (S26 protein from RPMI8226 cells) (Homo sapiens (Human), UniProt P28072)
Sequence (P28072 whole entry): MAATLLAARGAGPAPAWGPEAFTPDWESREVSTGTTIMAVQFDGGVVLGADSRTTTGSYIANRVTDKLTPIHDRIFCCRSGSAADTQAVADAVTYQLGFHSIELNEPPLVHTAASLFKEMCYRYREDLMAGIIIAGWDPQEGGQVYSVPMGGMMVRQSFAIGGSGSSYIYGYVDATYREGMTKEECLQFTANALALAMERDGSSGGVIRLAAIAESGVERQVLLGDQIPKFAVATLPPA
observedProperty: IC50

1) CC(C)C[C@H](NC(=O)C1(Cc2ccccc2)CC(CNC(=O)c2nn(C)c3ccccc23)=NO1)B(O)O (stereo partly shown) [Example 201]; > 250 nM
2) CC(C)C[C@H](NC(=O)C1(Cc2ccccc2)CC(CNC(=O)c2cccc3c2ccn3C)=NO1)B(O)O (stereo partly shown) [Example 138]; > 500 nM
3) CC(C)C[C@H](NC(=O)C1(Cc2ccccc2)CC(CNC(=O)c2n[nH]c3ccccc23)=NO1)B(O)O (stereo partly shown) [Example 200]; > 100 nM
4) CC(C)C[C@H](NC(=O)C1(Cc2cccc(F)c2)CC(CNC(=O)c2nccc3ccccc23)=NO1)B(O)O (stereo partly shown) [Example 187]; > 500 nM
5) CC(C)C[C@H](NC(=O)C1(Cc2ccccc2)CC(CNC(=O)c2nccc3ccccc23)=NO1)B(O)O (stereo partly shown) [Example 84]; > 1000 nM
6) CC(C)C[C@H](NC(=O)C1(Cc2ccccc2)CC(CNC(=O)c2cc(Cl)ccc2Cl)=NO1)B(O)O (stereo partly shown) [Example 85]; > 1000 nM
7) CCCC1(C(=O)N[C@@H](CC(C)C)B(O)O)CC(CNC(=O)c2cc(Cl)ccc2Cl)=NO1 (stereo partly shown) [Example 88]; > 2500 nM
